# Assayed System: human plasma kallikrein (Homo sapiens)
# Sequence (P03952 391-638 limits assumed): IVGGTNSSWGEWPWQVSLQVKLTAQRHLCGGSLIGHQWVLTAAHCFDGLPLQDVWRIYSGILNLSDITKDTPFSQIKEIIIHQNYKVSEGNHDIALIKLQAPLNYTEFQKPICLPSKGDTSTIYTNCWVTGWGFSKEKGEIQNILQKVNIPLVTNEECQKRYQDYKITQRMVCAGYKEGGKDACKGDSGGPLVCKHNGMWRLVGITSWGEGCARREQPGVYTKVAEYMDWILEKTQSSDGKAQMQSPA
# Sequence (P03952 20-390 partner limits assumed): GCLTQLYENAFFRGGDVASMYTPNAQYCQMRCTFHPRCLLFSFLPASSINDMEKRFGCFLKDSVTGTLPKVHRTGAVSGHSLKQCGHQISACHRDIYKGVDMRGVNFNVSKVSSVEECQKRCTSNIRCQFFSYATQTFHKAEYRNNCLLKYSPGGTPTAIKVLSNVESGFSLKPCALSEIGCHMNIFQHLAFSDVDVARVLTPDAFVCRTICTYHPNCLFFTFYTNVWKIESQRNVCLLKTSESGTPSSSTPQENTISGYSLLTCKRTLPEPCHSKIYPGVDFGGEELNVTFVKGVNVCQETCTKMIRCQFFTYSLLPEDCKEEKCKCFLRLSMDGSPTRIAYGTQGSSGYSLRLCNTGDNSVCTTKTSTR
# Test Name: Kallikrein inhibition assay utilizing a quenched AMC peptide substrate (FLINT)
# Test Settings: 11-point, 3-fold serial dilution, top 1 μM; 30 min preincubation; 2 nM kallikrein; 50 μM Z-Gly-Pro-Arg-AMC; kinetic reads over 30 min
Assay Endpoint: IC50

INSERT INTO assay_data (molecule, reported) VALUES
  ('CN(C)c1ccnc2ccc(NC(=O)C3CCC4CC(c5c(-n6cc(Cl)nn6)ccc(Cl)c5F)=CC(=O)N43)cc12 (stereo not drawn)', '0.16 µM'),
  ('O=C(Nc1ccc(-c2nc(=O)o[nH]2)cc1)[C@@H]1CCC2CC(c3c(OC(F)F)ccc(Cl)c3F)=CC(=O)N21 (mixture of isomers)', '0.421 µM'),
  ('CC1(C)C[C@@H](C(=O)Nc2ccc3nccnc3c2)N2C(=O)C=C(c3c(-n4cnnn4)ccc(Cl)c3F)CC21 (single isomer, unassigned) [ID No. 62]', '0.0172 µM'),
  ('CC(C)(O)c1nc2cc(NC(=O)[C@@H]3CCC4CC(c5c(-n6cnnn6)ccc(Cl)c5F)=CC(=O)N43)ccc2s1 (mixture of isomers)', '0.109 µM'),
  ('COCCn1cc2cc(NC(=O)C3CCC4CC(c5c(-n6cnnn6)ccc(Cl)c5F)=CC(=O)N43)ccc2n1 (single isomer, unassigned)', '0.0356 µM'),
  ('COCCNC(=O)c1ccc(NC(=O)[C@@H]2CC[C@@H]3CC(c4c(-n5cnnn5)ccc(Cl)c4F)=CC(=O)N32)cc1F (single isomer, unassigned)', '0.128 µM');

Origin of measurements: patent US12286429B2
